- Experimental protocol: Bioavailability in rat
- Assay type: ADME, organism-based
- Experimental setup: in vivo
Observed property: bioavailability (%)
Response body: numeric value in %, unit text excluded.

Solved entries:
COC[C@H](C)Oc1cc(OC(C)C)cc(C(=O)Nc2ccc(C(=O)O)cn2)c1
100
COC[C@H](C)Oc1cc(O[C@@H](C)Cc2ccccc2)cc(C(=O)Nc2ccc(C(=O)O)cn2)c1
99

Note: attention shifts to another entry.
Given the compound CC(C)Oc1cc(O[C@@H](C)Cc2ccccc2)cc(C(=O)Nc2ccc(C(=O)O)cn2)c1 , what is its reported bioavailability?
85

###

- Experimental protocol: Solubility of the compound
- Format: physicochemical
Some compounds, each annotated with its measured solubility.
Response body: numeric value in µM, unit text excluded.

CC(C)Oc1cc(O[C@@H](C)Cc2ccccc2)cc(C(=O)Nc2ccc(C(=O)O)cn2)c1
8

Note: attention shifts to another entry.
Given the compound COC[C@H](C)Oc1cc(O[C@@H](C)Cc2ccccc2)cc(C(=O)Nc2ccc(C(=O)O)cn2)c1 , what is its reported solubility?
1350

###

- Experimental protocol: Clearance in rat
- Type: ADME, organism-based
- Experimental setup: in vivo
Observed property: clearance
Just the number plus its unit, please.

COC[C@H](C)Oc1cc(OC(C)C)cc(C(=O)Nc2ccc(C(=O)O)cn2)c1
2.3 mL/min/kg

Given the molecule CC(C)Oc1cc(OCc2ccccc2)cc(C(=O)Nc2ccc(C(=O)O)cn2)c1 , what is its reported clearance?
3.7 mL/min/kg

###

- Experimental protocol: Intrinsic clearance in rat per 10^6 cells
- Assay type: ADME
Observed property: hepatocyte CLint

CC(C)Oc1cc(OCCc2ccsc2)cc(C(=O)Nc2ccc(C(=O)O)cn2)c1
< 1 µL/min/1e6 cells

Given the compound CC(C)Oc1cc(O[C@@H](C)c2ccccc2)cc(C(=O)Nc2ccc(C(=O)O)cn2)c1 , what is its reported hepatocyte CLint?
< 1 µL/min/1e6 cells

Also, CC(C)Oc1cc(OCc2ccccc2)cc(C(=O)Nc2ccc(C(=O)O)cn2)c1 please.
< 1 µL/min/1e6 cells

###

- Measured on: Hexokinase-4 (Homo sapiens, UniProt P35557)
- Sequence (P35557 whole entry): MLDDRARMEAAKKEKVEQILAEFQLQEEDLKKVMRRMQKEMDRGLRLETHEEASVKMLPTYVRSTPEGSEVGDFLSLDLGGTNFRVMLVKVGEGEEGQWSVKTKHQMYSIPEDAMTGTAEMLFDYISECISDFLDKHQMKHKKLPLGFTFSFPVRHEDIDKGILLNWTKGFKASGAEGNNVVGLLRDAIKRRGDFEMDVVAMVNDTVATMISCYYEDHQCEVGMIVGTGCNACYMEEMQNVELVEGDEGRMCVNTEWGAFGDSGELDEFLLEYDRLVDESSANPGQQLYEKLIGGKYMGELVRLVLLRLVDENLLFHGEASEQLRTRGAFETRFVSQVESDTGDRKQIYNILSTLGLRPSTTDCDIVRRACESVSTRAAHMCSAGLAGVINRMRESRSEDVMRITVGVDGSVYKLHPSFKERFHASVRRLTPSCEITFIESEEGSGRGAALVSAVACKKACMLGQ
Observed property: pEC50
Field pEC50 (float): negative decimal logarithm of the concentration in molar.

Solved entries:
CC(C)Oc1cc(O[C@H](C)c2ccccc2)cc(C(=O)Nc2ccc(C(=O)O)cn2)c1
6.02
CC(C)Oc1cc(O[C@H](C)Cc2ccccc2)cc(C(=O)Nc2ccc(C(=O)O)cn2)c1
7.05
COC[C@H](C)Oc1cc(OC(C)C)cc(C(=O)Nc2ccc(C(=O)O)cn2)c1
6.21
CC(C)Oc1cc(O[C@@H](C)Cc2ccccc2)cc(C(=O)Nc2ccc(C(=O)O)cn2)c1
7.70
COC[C@@H](C)Oc1cc(OC(C)C)cc(C(=O)Nc2ccc(C(=O)O)cn2)c1
5.26

Note: attention shifts to another entry.
Given the compound CC(C)Oc1cc(O[C@@H](C)c2ccccc2)cc(C(=O)Nc2ccc(C(=O)O)cn2)c1 , what is its reported pEC50?
6.96

###

Some compounds, each annotated with its measured CL/F.
- Species on record: Rattus norvegicus
- Experimental protocol: Unbound clearance in rat
- Assay type: ADME, organism-based
- Experimental setup: in vivo
Response body: numeric value in mL/min/kg, unit text excluded.

Solved entries:
COC[C@H](C)Oc1cc(O[C@@H](C)Cc2ccccc2)cc(C(=O)Nc2ccc(C(=O)O)cn2)c1
475
CC(C)Oc1cc(OCc2ccccc2)cc(C(=O)Nc2ccc(C(=O)O)cn2)c1
1850
COC[C@H](C)Oc1cc(OC(C)C)cc(C(=O)Nc2ccc(C(=O)O)cn2)c1
43
CC(C)Oc1cc(O[C@@H](C)c2ccccc2)cc(C(=O)Nc2ccc(C(=O)O)cn2)c1
171
CC(C)Oc1cc(O[C@@H](C)Cc2ccccc2)cc(C(=O)Nc2ccc(C(=O)O)cn2)c1
1435

Given the compound CC(C)Oc1cc(OCCc2ccsc2)cc(C(=O)Nc2ccc(C(=O)O)cn2)c1 , what is its reported CL/F?
1461

###

- Experimental protocol: Percent of unbound ligand in rat plasma
- Assay type: ADME, organism-based
Returns one of True or False; True when fraction unbound is >= 0.003.

Consider the following illustrative entries.
CC(C)Oc1cc(OCCc2ccsc2)cc(C(=O)Nc2ccc(C(=O)O)cn2)c1
False
COC[C@@H](C)Oc1cc(OC(C)C)cc(C(=O)Nc2ccc(C(=O)O)cn2)c1
True
CC(C)Oc1cc(O[C@H](C)Cc2ccccc2)cc(C(=O)Nc2ccc(C(=O)O)cn2)c1
False
CC(C)Oc1cc(O[C@H](C)c2ccccc2)cc(C(=O)Nc2ccc(C(=O)O)cn2)c1
True
COC[C@H](C)Oc1cc(OC(C)C)cc(C(=O)Nc2ccc(C(=O)O)cn2)c1
True

Item CC(C)Oc1cc(OCc2ccccc2)cc(C(=O)Nc2ccc(C(=O)O)cn2)c1 with fraction unbound of 0.003 or above?
False

###

- Experimental protocol: Clearance in dog
- Assay type: ADME, organism-based, Canis lupus familiaris
- Experimental setup: in vivo
Some compounds, each annotated with its measured clearance.
Response body: numeric value in mL/min/kg, unit text excluded.

COC[C@H](C)Oc1cc(O[C@@H](C)Cc2ccccc2)cc(C(=O)Nc2ccc(C(=O)O)cn2)c1
4.4

Note: attention shifts to another entry.
Given the compound CC(C)Oc1cc(OCCc2ccsc2)cc(C(=O)Nc2ccc(C(=O)O)cn2)c1 , what is its reported clearance?
8.7
